- System: Plasmodium falciparum
- method_summary: Antiplasmodial activity against chloroquine-resistant Plasmodium falciparum RKL9 after 24 hrs by Giemsa staining
- Format: functional, organism-based
- run_conditions: RKL9, 24 h
assay_readout: pIC50
Entry type: numeric. Quantity: pIC50, the -log10 of concentration in molar units.

Observed pIC50 on Plasmodium falciparum, entry "COc1ccc(COC(=O)OC[C@@H]2CC[C@]3(C)C(C)=CC(=O)C[C@H]3[C@]2(C)CCC2=CCOC2=O)cc1" , equals 4.32

Observed pIC50 on Plasmodium falciparum, entry "CC1=CC(=O)C[C@H]2[C@](C)(CCC3=CCOC3=O)[C@H](COCc3ccc(Cl)cc3)CC[C@]12C" , equals 4.73

Observed pIC50 on Plasmodium falciparum, entry "CC1=CC(=O)C[C@H]2[C@](C)(CCC3=CCOC3=O)[C@H](COCc3ccc(C(F)(F)F)cc3)CC[C@]12C" , equals 5.36

Observed pIC50 on Plasmodium falciparum, entry "CC1=CC(=O)C[C@H]2[C@](C)(CCC3=CCOC3=O)[C@H](COS(C)(=O)=O)CC[C@]12C" , equals 4.13

Observed pIC50 on Plasmodium falciparum, entry "CC1=CC(=O)C[C@H]2[C@](C)(CCC3=CCOC3=O)[C@H](COC(=O)OCc3ccccc3)CC[C@]12C" , equals 4.36

Observed pIC50 on Plasmodium falciparum, entry "COC[C@@H]1CC[C@]2(C)C(C)=CC(=O)C[C@H]2[C@]1(C)CCC1=CCOC1=O" , equals 4.05

Observed pIC50 on Plasmodium falciparum, entry "CC1=CC(=O)C[C@H]2[C@](C)(CCC3=CCOC3=O)[C@H](COS(=O)(=O)c3ccc(C)cc3)CC[C@]12C" , equals 4.34

Observed pIC50 on Plasmodium falciparum, entry "CC1=CC(=O)C[C@H]2[C@](C)(CCC3=CCOC3=O)[C@H](COCc3ccc(F)cc3)CC[C@]12C" , equals 5.09

Observed pIC50 on Plasmodium falciparum, entry "CC1=CC(=O)C[C@H]2[C@](C)(CCC3=CCOC3=O)[C@H](COC(=O)C(C)(C)C)CC[C@]12C" , equals 4.07
